# reported MIC; entries follow
system: A.b TNP 41708; experiment: MIC against A. baumannii clinical isolates, alone and in combination with antibiotics; assay type: cell-based; settings: Acinetobacter baumannii, TNP41708, read-out: MIC A.b TNP 41708

Recorded MIC, per entry:
1) C[C@]1(/C=N/NC(=O)CCNC(=O)c2ccc(O)c(O)c2)[C@H](C(=O)O)N2C(=O)C[C@H]2S1(=O)=O [Example 67]    > 128 µg/mL
2) CC1(C)[C@H](C(=O)O)N2C(=O)C[C@H]2S1(=O)=O [Sulbactam, reference compound]    32 µg/mL

Next, consider the following compound.
Form: compound = COc1ccc(C(=O)N/N=C/[C@@]2(C)[C@H](C(=O)O)N3C(=O)C[C@H]3S2(=O)=O)cc1 [Example 35] ; MIC = > 128 µg/mL

Values compiled from patent US11040987B2.
